molecular target: Sodium-dependent dopamine transporter (Rattus norvegicus, UniProt P23977); assay: Inhibitory activity determined for [3H]DA (Dopamine transporter) uptake by striated synaptosomes; format: subcellular, Brain
Sequence (P23977 whole entry): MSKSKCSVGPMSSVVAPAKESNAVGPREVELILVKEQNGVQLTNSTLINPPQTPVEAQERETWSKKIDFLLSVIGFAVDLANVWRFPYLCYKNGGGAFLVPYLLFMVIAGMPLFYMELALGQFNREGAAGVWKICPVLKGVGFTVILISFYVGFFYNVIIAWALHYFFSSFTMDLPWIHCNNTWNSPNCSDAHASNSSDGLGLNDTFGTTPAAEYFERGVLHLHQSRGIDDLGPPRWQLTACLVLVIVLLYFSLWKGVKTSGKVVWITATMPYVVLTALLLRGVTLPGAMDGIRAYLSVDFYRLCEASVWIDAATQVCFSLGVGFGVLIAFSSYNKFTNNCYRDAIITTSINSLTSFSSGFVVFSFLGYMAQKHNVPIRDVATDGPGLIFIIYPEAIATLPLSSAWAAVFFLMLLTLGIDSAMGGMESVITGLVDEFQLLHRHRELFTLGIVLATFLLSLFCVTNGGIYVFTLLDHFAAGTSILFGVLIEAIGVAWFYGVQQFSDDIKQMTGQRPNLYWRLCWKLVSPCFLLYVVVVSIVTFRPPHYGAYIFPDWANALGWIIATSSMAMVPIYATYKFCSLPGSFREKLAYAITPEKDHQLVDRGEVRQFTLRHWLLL
So basically, if IC50 comes in under 3 nM it's T, and if it's 3 nM or more it's F.

Reference set, count: 2
| Compound | Label value |
| --- | --- |
| CN1C2CC[C@@H]1C[C@@H](c1ccccc1)[C@H]2c1ccccc1 | F |
| CCC[C@H]1C2CC[C@H](C[C@H]1c1ccc(F)cc1)N2C | F |

Problem: State whether 3 nM exceeds IC50 recorded for CCC[C@H]1C(c2ccc(C)cc2)C[C@H]2CCC1N2C (stereo not given in full) .
Solution: T

Problem: State whether 3 nM exceeds IC50 recorded for `CN1C2CC[C@@H]1C[C@@H](c1ccc(F)cc1)[C@H]2c1ccccc1` .
Solution: F

---

biological target: Monoamine transporters; serotonin & dopamine (Rattus norvegicus) (UniProt P31652+P23977); assay: Ratio of Ki value for 5-HT to that of DA.; assay type: protein assay
Sequence (P23977 whole entry, looked up): as the sequence (P23977 whole entry) above
Sequence (P31652 whole entry, looked up): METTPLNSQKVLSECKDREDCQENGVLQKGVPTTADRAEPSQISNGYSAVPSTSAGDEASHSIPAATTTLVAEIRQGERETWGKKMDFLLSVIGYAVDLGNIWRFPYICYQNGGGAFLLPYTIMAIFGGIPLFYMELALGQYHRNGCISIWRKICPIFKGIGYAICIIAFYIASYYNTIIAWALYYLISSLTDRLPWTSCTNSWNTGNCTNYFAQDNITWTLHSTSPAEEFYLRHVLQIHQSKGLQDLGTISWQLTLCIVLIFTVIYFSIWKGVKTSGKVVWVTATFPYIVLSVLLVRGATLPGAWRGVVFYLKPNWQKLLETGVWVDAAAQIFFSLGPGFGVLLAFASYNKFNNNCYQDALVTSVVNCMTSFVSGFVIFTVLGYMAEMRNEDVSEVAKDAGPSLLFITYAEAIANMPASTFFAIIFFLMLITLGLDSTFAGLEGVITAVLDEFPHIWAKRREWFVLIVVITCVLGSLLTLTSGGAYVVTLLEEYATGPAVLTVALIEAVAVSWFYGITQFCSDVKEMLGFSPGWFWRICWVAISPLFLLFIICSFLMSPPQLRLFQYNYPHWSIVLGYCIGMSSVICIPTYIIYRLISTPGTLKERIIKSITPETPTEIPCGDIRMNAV
Measured metric: Uptake ratio

Below, each entry is followed by its recorded Uptake ratio result.
| Molecule | Uptake ratio |
| --- | --- |
| CCC[C@H]1C2CC[C@H](C[C@H]1c1ccccc1)N2C | 12.9 |
| CCCC[C@H]1C2CC[C@H](C[C@H]1c1ccc(C)cc1)N2C | 5.1 |
| CN1C2CC[C@@H]1C[C@@H](c1ccccc1)[C@H]2c1ccccc1 | 64.3 |
| CCC[C@H]1C(c2ccccc2)C[C@H]2CCC1N2C (stereo partly drawn) | 12.6 |
| CN1C2CC[C@@H]1C[C@@H](c1ccc(F)cc1)[C@H]2c1ccccc1 | 26.6 |

Problem: What value of Uptake ratio has been recorded for this entry: CCC[C@H]1C(c2ccc(C)cc2)C[C@H]2CCC1N2C (stereo partly drawn)
Solution: 9.35

Problem: What value of Uptake ratio has been recorded for this entry: `CCC[C@H]1C2CC[C@H](C[C@H]1c1ccc(C)cc1)N2C`
Solution: 4.25

Problem: What value of Uptake ratio has been recorded for this entry: CCCC[C@H]1C(c2ccc(C)cc2)C[C@H]2CCC1N2C (stereo partly drawn)
Solution: 11.5

Problem: What value of Uptake ratio has been recorded for this entry: `Cc1ccc([C@@H]2C[C@H]3CCC([C@@H]2c2ccccc2)N3C)cc1`
Solution: 68.9

Problem: What value of Uptake ratio has been recorded for this entry: CN1C2CC[C@@H]1CC(c1ccccc1)[C@@H]2c1ccccc1 (stereo partly drawn)
Solution: 38.1

---

biological target: Sodium-dependent dopamine transporter (Rattus norvegicus); assay: Inhibitory activity determined for [3H]DA (Dopamine transporter) uptake by striated synaptosomes; format: subcellular, Brain
Measured metric: log10 of IC50 (log10 of the value in nM)
Would you kindly interpret these values as log10 of IC50 expressed in nM?

Below, each entry is followed by its recorded log10 of IC50 result.
| Compound | log10 of IC50 |
| --- | --- |
| CCC[C@H]1C(c2ccc(F)cc2)C[C@H]2CCC1N2C (stereo not given in full) | 0.33 |
| CCC[C@H]1C(c2ccccc2)C[C@H]2CCC1N2C (stereo not given in full) | 0.87 |
| CCC[C@H]1C2CC[C@H](C[C@H]1c1ccc(C)cc1)N2C | 1.11 |
| COC(=O)[C@@H]1C2CC[C@H](C[C@@H]1c1ccc(C)cc1)N2C | 0.87 |
| CCCC[C@H]1C2CC[C@H](C[C@H]1c1ccc(C)cc1)N2C | 1.04 |

Problem: What value of log10 of IC50 has been recorded for this entry: CCCC[C@H]1C(c2ccc(C)cc2)C[C@H]2CCC1N2C (stereo not given in full)
Solution: 0.15

Problem: What value of log10 of IC50 has been recorded for this entry: COC(=O)[C@H]1C(c2ccccc2)C[C@H]2CCC1N2C (stereo not given in full)
Solution: 1.76

Problem: What value of log10 of IC50 has been recorded for this entry: CN1C2CC[C@@H]1CC(c1ccccc1)[C@@H]2c1ccccc1 (stereo not given in full)
Solution: 1.49

Problem: What value of log10 of IC50 has been recorded for this entry: `Cc1ccc([C@@H]2C[C@H]3CCC([C@@H]2c2ccccc2)N3C)cc1`
Solution: 0.65

Problem: What value of log10 of IC50 has been recorded for this entry: `CCC[C@H]1C2CC[C@H](C[C@H]1c1ccccc1)N2C`
Solution: 1.51
